# target: T1, human histidine-rich glycoprotein (HRG), purified from human plasma (human, UniProt P04196 19-525)
# T1 construct: also called human purified HRG; human purified HRG protein
# T1 sequence: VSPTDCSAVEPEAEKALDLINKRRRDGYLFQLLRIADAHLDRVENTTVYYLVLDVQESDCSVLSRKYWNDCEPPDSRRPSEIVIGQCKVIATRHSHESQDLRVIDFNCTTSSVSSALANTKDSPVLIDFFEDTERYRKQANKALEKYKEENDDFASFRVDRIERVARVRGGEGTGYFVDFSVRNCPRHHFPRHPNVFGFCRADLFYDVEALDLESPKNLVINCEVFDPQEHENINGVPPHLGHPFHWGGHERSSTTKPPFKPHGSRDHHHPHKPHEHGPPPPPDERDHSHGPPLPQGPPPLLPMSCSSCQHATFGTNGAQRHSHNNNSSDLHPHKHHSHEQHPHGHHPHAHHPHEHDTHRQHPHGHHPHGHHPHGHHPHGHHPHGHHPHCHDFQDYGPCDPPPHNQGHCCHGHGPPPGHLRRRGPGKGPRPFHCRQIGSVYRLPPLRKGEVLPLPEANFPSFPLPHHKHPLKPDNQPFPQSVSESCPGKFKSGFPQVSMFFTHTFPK
# protocol.text: sandwich ELISA, HRG captured by solid phase 9-1F
metric.name: absorbance at 450 nm

| binder | absorbance at 450 nm |
| --- | --- |
| anti-HRG monoclonal antibody 6-12A-10B-9G (antibody, V domains shown, Mouse hybridoma monoclonal; biotin-labeled as detection antibody and for bead immobilisation) VH: EVQLQESGPGLVKPSQSLSLTCTVTGYSITSDYAWNWIRQFPGNKLEWMGYISYSGSTNYNPSLRSRISITRDTSKNQFFLQLISVTTEDTATYYCGSASYRYAWFAYWGQGTLVTVSA VL: DIQVTQTTSSLSASLGDRVTISCRASQDISNYLNWYQQKPDGTVKLLIYYTSRLHSGVPSRFSGSGSGTDYSLTISNLEQEDIATYFCQQGNTLPTFGGGTKLEIK | < 1 OD |

Now turn to the next binder.
Data request, read-out absorbance at 450 nm, for anti-HRG monoclonal antibody 65-3A (antibody, V domains shown, Mouse hybridoma monoclonal) VH: QVILKESGPGILQPSQTLSLTCSFSGFSLSTSGVGVSWIRQPSGKGLEWLAHIYWDDDKHYNPSLKSRLTISKDTSRNQVFLRITSVDTADTATYYCALGTVGGPWFPYWGQGTLVTVSA VL: DVQMNQSHKFMSTSVGDRVSITCKASQDVSTAVAWYQQKPGQSPKILIYWASIRHTGVPDRFTGSGSGTDYTLTISSVQAEDLTLYYCQQHYSTPWTFGGGTKLEIK
< 1 OD
